Test system: HT29 colon
Assay: NCI tumour cell line growth inhibition, 48 h
Would you mind telling me the reported TGI of each entry?
I only need the number, in µM, no unit after it.

# TGI lookup, item C[C@]12CC[C@H](O)CC1=CC[C@@H]1[C@@H]2CC[C@]2(C)NC(=O)/C(=C\c3ccccc3)C[C@@H]12
31.5

Form field: reported TGI of C/C=C(\C)C(=O)O[C@@H]1C=CC(=O)O[C@H]1CNC(=O)[C@H](C)O
40.6

# lookup: TGI of CCS(=O)(=O)N1CCN(c2ccc(Nc3ncc(C(N)=O)c(NC4CC4)n3)cc2)CC1
21.6

Which TGI reading was recorded for the compound NC(Cc1c[nH]c2cccc(F)c12)C(=O)O (stereo not given) ?
2620

Which measured TGI value corresponds to C[C@@H](Oc1cc(-c2cnn(C3CCNCC3)c2)cnc1N)c1c(Cl)cc(F)cc1Cl ?
3.56
